molecular target: V1a (Homo sapiens); assay: Human vasopression V1a receptor binding assay; parameters: host or cells: CHO cells (hV1a cell line), whole adherent cells; conditions: hV1a cell line (CHO); Table 18
Quantity: Ki (nM)
Entry rule: numbers only, all in nM.

compound=O=C(NCc1cccc([N+](=O)[O-])c1)[C@H](CCC(=O)N1CCN(C2CCCCC2)CC1)N1C(=O)[C@@H](N2C(=O)OC[C@@H]2c2ccccc2)[C@H]1/C=C/c1ccccc1 measured=1.04

Attention now shifts to the item below.
CCCN1CCN(C(=O)CC[C@@H](C(=O)NCc2cccc(C(F)(F)F)c2)N2C(=O)[C@@H](N3C(=O)OC[C@@H]3c3ccccc3)[C@H]2/C=C/c2ccccc2)CC1 [Example 120B] yielded Ki of 1.79

====

target: V1a (Homo sapiens); experiment: Human vasopression V1a receptor binding assay; parameters: host or cells: CHO cells (hV1a cell line), whole adherent cells; details: hV1a cell line (CHO), 1 nM 3H-AVP; Table 17; read-out: V1a Binding Affinity (IC50 (nM))
Listed here: items and their measured IC50.
Entry rule: numbers only, all in nM.

molecule="O=C(NC1Cc2ccccc2C1)[C@H](CCC(=O)N1CCN(C2CCCCC2)CC1)N1C(=O)[C@@H](N2C(=O)OC[C@@H]2c2ccccc2)[C@H]1/C=C/c1ccccc1 [Example 221P]" measured=1.7

COc1ccccc1C=CC1C(N2C(=O)OCC2c2ccccc2)C(=O)N1C(CC(=O)N1CCC(N2CCCCC2)CC1)C(=O)NCc1cccc(C(F)(F)F)c1 (stereo not drawn) yielded IC50 of 6.12

====

Listed here: items and their measured log10 of Ki.
target: V1a (Homo sapiens, UniProt P37288); assay: Human vasopression V1a receptor binding assay; details: hV1a cell line (CHO); Table 18
Sequence (P37288 whole entry): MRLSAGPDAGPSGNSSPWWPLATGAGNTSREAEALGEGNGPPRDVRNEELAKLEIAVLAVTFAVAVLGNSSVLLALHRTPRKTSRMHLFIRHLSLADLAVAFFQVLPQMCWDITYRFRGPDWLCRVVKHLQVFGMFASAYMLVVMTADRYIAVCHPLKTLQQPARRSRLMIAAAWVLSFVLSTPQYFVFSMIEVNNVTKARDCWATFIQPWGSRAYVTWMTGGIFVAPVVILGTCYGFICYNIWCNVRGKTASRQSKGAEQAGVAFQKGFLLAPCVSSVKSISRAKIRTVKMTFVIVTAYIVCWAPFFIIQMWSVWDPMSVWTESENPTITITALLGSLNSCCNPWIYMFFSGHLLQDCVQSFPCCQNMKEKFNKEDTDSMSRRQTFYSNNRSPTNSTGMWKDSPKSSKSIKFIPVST
Would you kindly interpret these values as log10 of Ki expressed in nM?

molecule=O=C(NCc1cccc(C(F)(F)F)c1)[C@H](CCC(=O)N1CCN(Cc2ccc3c(c2)OCO3)CC1)N1C(=O)[C@@H](N2C(=O)OC[C@@H]2c2ccccc2)[C@H]1/C=C/c1ccccc1 quantity="log10 of Ki" measured=0.42
molecule="O=C(NCc1cccc(C(F)(F)F)c1)[C@H](CCC(=O)N1CCC(CCN2CCCCC2)CC1)N1C(=O)[C@@H](N2C(=O)OC[C@@H]2c2ccccc2)[C@H]1/C=C/c1ccccc1 [Example 120A]" quantity="log10 of Ki" measured=1.00
molecule=O=C(NCc1cccc(C(F)(F)F)c1)[C@H](CC(=O)N1CCC(N2CCCCC2)CC1)N1C(=O)[C@@H](N2C(=O)OC[C@@H]2c2ccccc2)[C@H]1/C=C/c1ccccc1 quantity="log10 of Ki" measured=0.28
molecule=O=C(NCc1cccc(C(F)(F)F)c1)[C@@H](CCC(=O)N1CCN(C2CCCCC2)CC1)N1C(=O)[C@@H](N2C(=O)OC[C@@H]2c2ccccc2)[C@H]1/C=C/c1ccccc1 quantity="log10 of Ki" measured=0.77
molecule="O=C(NC1CCCc2ccccc21)C(CCC(=O)N1CCN(C2CCCCC2)CC1)N1C(=O)C(N2C(=O)OCC2c2ccccc2)C1C=Cc1ccccc1 (single isomer, unassigned) [Example 215]" quantity="log10 of Ki" measured=-0.42
molecule=O=C(NC1(c2ccccc2)CCCC1)[C@H](CCC(=O)N1CCN(C2CCCCC2)CC1)N1C(=O)[C@@H](N2C(=O)OC[C@@H]2c2ccccc2)[C@H]1/C=C/c1ccccc1 quantity="log10 of Ki" measured=0.29
molecule="CN(Cc1cccc(Cl)c1Cl)C(=O)[C@H](CCC(=O)N1CCN(C2CCCCC2)CC1)N1C(=O)[C@@H](N2C(=O)OC[C@@H]2c2ccccc2)[C@H]1/C=C/c1ccccc1 [Example 221B]" quantity="log10 of Ki" measured=-0.44
molecule="O=C(NC1(c2ccccc2F)CCCC1)[C@H](CCC(=O)N1CCN(C2CCCCC2)CC1)N1C(=O)[C@@H](N2C(=O)OC[C@@H]2c2ccccc2)[C@H]1/C=C/c1ccccc1 [Example 221H]" quantity="log10 of Ki" measured=0.40
molecule=Cc1cccc(CNC(=O)[C@H](CCC(=O)N2CCN(C3CCCCC3)CC2)N2C(=O)[C@@H](N3C(=O)OC[C@@H]3c3ccccc3)[C@H]2/C=C/c2ccccc2)c1 quantity="log10 of Ki" measured=-0.14

O=C(NCc1cccc(Br)c1)[C@H](CCC(=O)N1CCN(C2CCCCC2)CC1)N1C(=O)[C@@H](N2C(=O)OC[C@@H]2c2ccccc2)[C@H]1/C=C/c1ccccc1 yielded log10 of Ki of -0.27
